All values here come from ChEMBL document CHEMBL1201862.

Please respond with reported GI50 for every item in the list.
test system: NCI/ADR-RES; test: NCI tumour cell line growth inhibition, 48 h
Active and inactive are the calls of the source. Rule as the data show it: active = GI50 up to about 1.1 µM and inactive = higher.

What reported GI50 corresponds to O=NN(CCCl)C(=O)N[C@H]1CC[C@@H](CC(=O)O)CC1 on NCI/ADR-RES?
> 100 µM (inactive)

What reported GI50 corresponds to O=C(CN1CCOCC1)Nc1ccc2c(c1)C1Oc3ccccc3CC1CO2 (configuration not stated) on NCI/ADR-RES?
> 100 µM (inactive)

What reported GI50 corresponds to Oc1ccc(-c2nc3ccc(Cl)cc3s2)cc1 on NCI/ADR-RES?
23.4 µM (inactive)

What reported GI50 corresponds to COC(=O)C1(Cc2ccc3c(c2)CCC3)Cc2ccccc2C1O (configuration not stated) on NCI/ADR-RES?
18.7 µM (inactive)

What reported GI50 corresponds to COc1c(C(CC(C)C)OC(C)=O)ccc2c1C(=O)OCc1cc(C)cc(O)c1O2 (configuration not stated) on NCI/ADR-RES?
12.5 µM (inactive)

What reported GI50 corresponds to CCCCCCCCCCCCCCCCCCNc1ccn(C2OC(COP(=O)(O)OCC3OC(n4ccc(NC(=O)CCCCCCCCCCCCCCCCC)nc4=O)C(OC(C)=O)C3OC(C)=O)C(OC(C)=O)C2OC(C)=O)c(=O)n1 (configuration not stated) on NCI/ADR-RES?
> 100 µM (inactive)

What reported GI50 corresponds to CC1=C(Br)C(=O)C(C)=C(Br)C1=O.Cc1c(O)c(Br)c(C)c(O)c1Br on NCI/ADR-RES?
4.31 µM (inactive)

What reported GI50 corresponds to O=C(OCCN=c1c2ccccc2ccc2ccccc12)c1ccccc1 on NCI/ADR-RES?
96.4 µM (inactive)

What reported GI50 corresponds to CCOP(=O)(C[S+](C)[O-])O[C@@H]1C[C@H](C)CC[C@H]1C(C)C (some centres not stated) on NCI/ADR-RES?
7.29 µM (inactive)

What reported GI50 corresponds to N#C/C(N)=C(C#N)/N=C/N on NCI/ADR-RES?
> 100 µM (inactive)

What reported GI50 corresponds to COc1ccc(S(=O)(=O)NC(CCC(=O)NN)C(=O)NN)cc1 (configuration not stated) on NCI/ADR-RES?
> 100 µM (inactive)

What reported GI50 corresponds to O=C(C(=O)n1ccc2ccccc21)n1ccc2ccccc21 on NCI/ADR-RES?
> 100 µM (inactive)
